Values compiled from ChEMBL document CHEMBL1142717.

# Species on record: Rattus norvegicus
# ASSAY_PROTOCOL: Selectivity against Nicotinic acetylcholine receptor subtypes alpha3-beta4 and alpha4-beta2
Each item that follows carries a reported Selectivity.
MEASUREMENT_LABEL: Selectivity

INSERT INTO assay_data (compound, observed_measurement) VALUES
  ('C#Cc1cncc(OC[C@@H]2CCCN2C)c1', 4250),
  ('CN1CCC[C@H]1COc1cncc(C#CC(C)(C)O)c1', 21000),
  ('OCCCCC#Cc1cncc(C2CC3CCC2N3)c1 (stereo not drawn)', 2380);

----------
# TARGET: Neuronal acetylcholine receptor; alpha3/beta2 (Homo sapiens, UniProt P17787+P32297)
# Sequence (P17787 whole entry): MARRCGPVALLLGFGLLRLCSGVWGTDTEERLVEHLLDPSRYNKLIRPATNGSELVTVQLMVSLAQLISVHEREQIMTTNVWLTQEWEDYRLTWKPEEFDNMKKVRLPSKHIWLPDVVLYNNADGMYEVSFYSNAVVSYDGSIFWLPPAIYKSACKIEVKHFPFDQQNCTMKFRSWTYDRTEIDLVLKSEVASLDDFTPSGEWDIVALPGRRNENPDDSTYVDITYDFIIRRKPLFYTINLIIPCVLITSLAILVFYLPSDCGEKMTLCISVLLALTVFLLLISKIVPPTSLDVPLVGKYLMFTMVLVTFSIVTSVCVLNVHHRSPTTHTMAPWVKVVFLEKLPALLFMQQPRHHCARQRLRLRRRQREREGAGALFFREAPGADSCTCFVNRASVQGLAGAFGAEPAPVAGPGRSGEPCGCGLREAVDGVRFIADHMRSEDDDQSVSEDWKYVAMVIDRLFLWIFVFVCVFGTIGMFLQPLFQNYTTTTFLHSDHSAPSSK
# Sequence (P32297 whole entry): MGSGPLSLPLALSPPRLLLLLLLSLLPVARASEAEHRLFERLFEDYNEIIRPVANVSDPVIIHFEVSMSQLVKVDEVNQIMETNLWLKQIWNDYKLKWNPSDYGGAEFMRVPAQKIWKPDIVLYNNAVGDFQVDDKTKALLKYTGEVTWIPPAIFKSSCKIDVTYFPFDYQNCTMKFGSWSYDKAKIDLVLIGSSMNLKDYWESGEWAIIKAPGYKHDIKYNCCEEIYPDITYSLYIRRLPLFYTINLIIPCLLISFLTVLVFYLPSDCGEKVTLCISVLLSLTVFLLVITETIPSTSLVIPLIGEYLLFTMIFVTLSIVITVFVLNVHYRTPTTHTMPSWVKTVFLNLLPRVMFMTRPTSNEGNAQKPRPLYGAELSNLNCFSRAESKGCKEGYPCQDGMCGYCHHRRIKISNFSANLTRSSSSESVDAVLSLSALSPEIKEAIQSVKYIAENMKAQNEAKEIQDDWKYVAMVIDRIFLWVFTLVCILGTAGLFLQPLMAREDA
# ASSAY_PROTOCOL: Inhibition of [3H]epibatidine binding to Nicotinic acetylcholine receptor alpha3-beta2
pKi: −log10 of the molar value.
Reported pKi by item:
MEASUREMENT_LABEL: pKi

INSERT INTO results (item_smiles, target, observed_measurement) VALUES
  ('CN1CCC[C@H]1COc1cncc(C#CCCCCCCCCO)c1', 'Neuronal acetylcholine receptor; alpha3/beta2 (Homo sapiens, UniProt P17787+P32297)', 7.32),
  ('CN1CCC[C@H]1COc1cncc(C#CCO)c1', 'Neuronal acetylcholine receptor; alpha3/beta2 (Homo sapiens, UniProt P17787+P32297)', 8.15),
  ('CN1CCC[C@H]1COc1cncc(C#CC(C)(C)O)c1', 'Neuronal acetylcholine receptor; alpha3/beta2 (Homo sapiens, UniProt P17787+P32297)', 7.64),
  ('CN1CCC[C@H]1COc1cncc(C#Cc2ccccc2)c1', 'Neuronal acetylcholine receptor; alpha3/beta2 (Homo sapiens, UniProt P17787+P32297)', 8.07),
  ('CCCCC#Cc1cncc(OC[C@@H]2CCCN2C)c1', 'Neuronal acetylcholine receptor; alpha3/beta2 (Homo sapiens, UniProt P17787+P32297)', 7.68),
  ('CN1CCC[C@H]1COc1cncc(C#CCCCCF)c1', 'Neuronal acetylcholine receptor; alpha3/beta2 (Homo sapiens, UniProt P17787+P32297)', 7.85),
  ('C#Cc1cncc(OC[C@@H]2CCCN2C)c1', 'Neuronal acetylcholine receptor; alpha3/beta2 (Homo sapiens, UniProt P17787+P32297)', 8.09);
